Where do the numbers come from? From PubChem BioAssay (NCI).

GI50 overview
- Tested on: PC-3 prostate
- ASSAY_OVERVIEW: NCI tumour cell line growth inhibition, 48 h
ENDPOINT: GI50

- COMPOUND: "CCCCNc1nc(NC(C)(C)C)nc(NC(C)(C)C)n1"
  RESULT_VALUE: "4.26 µM"
- COMPOUND: "CC(C)c1ccc(Cc2cnc(NC(=O)c3cc(Br)cs3)s2)cc1"
  RESULT_VALUE: "2.23 µM"
- COMPOUND: "CC1=CSC2=NC(c3ccc(Cl)c(Cl)c3)=CC(c3ccc(Cl)cc3)N12 (stereo unspecified)"
  RESULT_VALUE: "> 100 µM"
- COMPOUND: "COc1ccc2c(c1)sc1nc(-c3ccccc3)c(-c3ccsc3)n12"
  RESULT_VALUE: "4.02 µM"
- COMPOUND: "O=C(Oc1ccc(O)c2c(=O)n3c(cc12)[nH]c1ccccc13)c1ccccc1"
  RESULT_VALUE: "18.2 µM"
- COMPOUND: "Cc1ccc(C(=O)c2oc3ccc4c(C)cc(=O)oc4c3c2C)cc1"
  RESULT_VALUE: "5.64 µM"
